- System: SUDHL5 cells
- test_summary: Induction of caspase-3/7 activity in SUDHL5 cells (Assay 4)
- Format: cell-based
- settings: read-out: Caspase SUDHL5 EC50 (median); caspase-3/7 induction, 3 h
# EC50 annotations
Write the answer as a number in nM, unit excluded.

Measured EC50 of CCc1c2c(nn1C)C(CCN1CCN(C)CC1)OCCCCn1c(C(=O)O)c(CCCOc3cccc4cc(F)ccc34)c3ccc(Cl)c-2c31 (single isomer, unassigned; stereoisomer 3) [Example 72] : 74

Measured EC50 of CCc1c2c(nn1C)C(CCN1CCN(C)CC1)OCCCCn1c(C(=O)O)c(CCCOc3cccc4cc(F)ccc34)c3ccc(Cl)c-2c31 (single isomer, unassigned; stereoisomer 2) [Example 70] : 13000

Measured EC50 of CCc1c2c(nn1C)C(CCN1CCOCC1)OCCCCn1c(C(=O)O)c(CCCOc3cccc4ccccc34)c3ccc(F)c-2c31 (single isomer, unassigned; enantiomer 1) [Example 11] : 97

Measured EC50 of CCc1c2c(nn1C)C(C1CC1)OCCCCn1c(C(=O)O)c(CCCOc3cccc4cc(F)ccc34)c3ccc(Cl)c-2c31 (single isomer, unassigned; enantiomer 1) [Example 39] : 750

Measured EC50 of CCc1c2c(nn1C)C(CC(C)(C)O)OCCCCn1c(C(=O)O)c(CCCOc3cccc4cc(F)ccc34)c3ccc(Cl)c-2c31 (single isomer, unassigned; enantiomer 1) [Example 53] : 76

* * *

- Test system: SUDHL10 cells
- test_summary: Induction of cytotoxicity in SUDHL10 cells (Assay 6)
- Type: cell-based
- settings: 5 h, CellTiter-Glo; read-out: Cytotox SUDHL10 IC50 (median)
- Procedure: Assay 6 Induction of Cytotoxicity Upon Treatment of Cells with Selected Compounds In principle, compounds that induce apoptosis will concomitantly induce cell cytotoxicity. Therefore, cytotoxicity assays were run in parallel in SUDHL5 and SUDHL10 cells. As a control, medium without cells was also added to the plate. Cells were incubated in a humidified incubator at 37° C. overnight. […] Finally, luminescence was read at 0.1 ms, with a gain of 3000 using the PHERAstar FS microplate reader (BMG Labtech).
# pIC50 annotations
Scale note: pIC50 = -log10(concentration in M).

Some molecules with known pIC50 results, for comparison:
- molecule: "Cc1c2c(nn1C)C(C1CC1)OCCCCn1c(C(=O)O)c(CCCOc3cccc4ccccc34)c3ccc(Cl)c-2c31 (single isomer, unassigned; enantiomer 2) [Example 36]"
  pIC50: 4.57
- molecule: "CCc1c2c(nn1C)C(CCN1CCN(C)CC1)OCCCCn1c(C(=O)O)c(CCCOc3cccc4cc(F)ccc34)c3ccc(Cl)c-2c31 (racemic) [Example 71]"
  pIC50: 7.44

Measured pIC50 of CCc1c2c(nn1C)C(CCC1CCOCC1)OCCCCn1c(C(=O)O)c(CCCOc3cccc4cc(F)ccc34)c3ccc(Cl)c-2c31 (single isomer, unassigned; enantiomer 1) [Example 63] : 7.17

Measured pIC50 of CCc1c2c(nn1C)C(CCN1CCOCC1)OCCCCn1c(C(=O)O)c(CCCOc3cccc4ccccc34)c3ccc(F)c-2c31 (single isomer, unassigned; enantiomer 2) [Example 12] : 5.09

Measured pIC50 of CCc1c2c(nn1C)C(CC(C)(C)O)OCCCCn1c(C(=O)O)c(CCCOc3cccc4cc(F)ccc34)c3ccc(Cl)c-2c31 (single isomer, unassigned; enantiomer 1) [Example 53] : 6.72

* * *

- Tested on: HMC-1-8 cells
- test_summary: Antiproliferation assay HMC-1-8 (Assay 7)
- Assay type: cell-based
- settings: 72 h, CellTiter-Glo, read-out: Antiproli HMC-1-8 IC50 median
pIC50: −log10 of the molar value.
Assign class by pIC50: not lower than 5 means rule met; lower than 5 means rule not met.

Example entries begin here.
- compound: "Cc1c2c(nn1C)C(CCO)OCCCCn1c(C(=O)O)c(CCCOc3cccc4ccccc34)c3ccc(Cl)c-2c31 (racemic)"
  label_class: "rule met"
- compound: "CCc1c2c(nn1C)C(CCN1CCC(F)(F)C1)OCCCCn1c(C(=O)O)c(CCCOc3cccc4cc(F)ccc34)c3ccc(Cl)c-2c31 (racemic) [Example 55]"
  label_class: "rule met"

Q. Please indicate if the recorded pIC50 for CCc1c2c(nn1C)C(CCN1CC(F)(F)C1)OCCCCn1c(C(=O)O)c(CCCOc3cccc4cc(F)ccc34)c3ccc(Cl)c-2c31 (racemic) meets or exceeds 5.
A. rule met

Q. Please indicate if the recorded pIC50 for CCc1c2c(nn1C)C(C1CC1)OCCCCn1c(C(=O)O)c(CCCOc3cccc4cc(F)ccc34)c3ccc(Cl)c-2c31 (racemic) meets or exceeds 5.
A. rule not met

* * *

- system_name: MCL-1 (Homo sapiens (Human), UniProt Q07820, K194A/K197A/R201A)
- Sequence (Q07820 whole entry K194A/K197A/R201A, looked up): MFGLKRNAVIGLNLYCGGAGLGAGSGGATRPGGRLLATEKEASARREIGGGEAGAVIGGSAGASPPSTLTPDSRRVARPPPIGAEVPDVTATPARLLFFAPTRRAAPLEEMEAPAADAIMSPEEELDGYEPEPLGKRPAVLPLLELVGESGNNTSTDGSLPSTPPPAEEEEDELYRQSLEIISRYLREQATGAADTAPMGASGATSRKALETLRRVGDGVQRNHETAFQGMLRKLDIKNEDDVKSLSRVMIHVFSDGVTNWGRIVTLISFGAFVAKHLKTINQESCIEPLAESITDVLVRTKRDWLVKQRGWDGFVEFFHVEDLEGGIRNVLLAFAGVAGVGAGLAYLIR
- test_summary: Protein-compound interaction assay (SPR assay, Assay 9)
- Assay type: binding
- settings: read-out: kon (geometric mean), SPR, 25° C.
measured_property: kon (M⁻¹ s⁻¹)
Write the answer as a number in M⁻¹ s⁻¹, unit excluded.

- compound: "Cc1c2c(nn1C)C(CCN1CCOCC1)OCCCCn1c(C(=O)O)c(CCCOc3cccc4cc(F)ccc34)c3ccc(Cl)c-2c31 (single isomer, unassigned; enantiomer 1)"
  kon (M⁻¹ s⁻¹): "2e+07"
- compound: "CCC1OCCCCn2c(C(=O)O)c(CCCOc3cccc4ccccc34)c3ccc(Cl)c(c32)-c2c1nn(C)c2C (single isomer, unassigned; enantiomer 1)"
  kon (M⁻¹ s⁻¹): "1.7e+06"
- compound: "CCc1c2c(nn1C)C(CCN1CCOCC1)OCCCCn1c(C(=O)O)c(CCCOc3cccc4ccccc34)c3ccc(F)c-2c31 (racemic)"
  kon (M⁻¹ s⁻¹): "9e+06"

In the following, a different compound is considered.
Measured kon of CCc1c2c(nn1C)C(CCC(C)(C)O)OCCCCn1c(C(=O)O)c(CCCOc3cccc4cc(F)ccc34)c3ccc(Cl)c-2c31 (single isomer, unassigned; enantiomer 1) : 9e+06

* * *

- System: SUDHL5 cells
- test_summary: Induction of cytotoxicity in SUDHL5 cells (Assay 6)
- Assay type: cell-based
- settings: 5 h, CellTiter-Glo; read-out: Cytotox SUDHL5 IC50 (median)
measured_property: pIC50
Scale note: pIC50 = -log10(concentration in M).

Some molecules with known pIC50 results, for comparison:
- molecule: "CCc1c2c(nn1C)C(CCN1CCOCC1)N(C)CCCCn1c(C(=O)O)c(CCCOc3cccc4cc(F)ccc34)c3ccc(Cl)c-2c31 (single isomer, unassigned) [Example 94]"
  pIC50: 7.40
- molecule: "CCc1c2c(nn1C)C(CCN1CCC(F)(F)C1)OCCCCn1c(C(=O)O)c(CCCOc3cccc4cc(F)ccc34)c3ccc(Cl)c-2c31 (single isomer, unassigned; enantiomer 1) [Example 56]"
  pIC50: 7.68
- molecule: "CCc1c2c(nn1C)C(CCN1CCN(C)CC1)OCCCCn1c(C(=O)O)c(CCCOc3cccc4cc(F)ccc34)c3ccc(Cl)c-2c31 (single isomer, unassigned; stereoisomer 1) [Example 69]"
  pIC50: 6.51
- molecule: "CCc1c2c(nn1C)C1CCCN1CCCCn1c(C(=O)O)c(CCCOc3cccc4cc(F)ccc34)c3ccc(Cl)c-2c31 (single isomer, unassigned; (-)) [Example 106]"
  pIC50: 5.43

In the following, a different molecule is considered.
Measured pIC50 of CCc1c2c(nn1C)C(CCN1CCOCC1)OCC(F)(F)CCn1c(C(=O)O)c(CCCOc3cccc4cc(F)ccc34)c3ccc(Cl)c-2c31 (single isomer, unassigned; (+)) [Example 90] : 7.52

* * *

# log10(IC50) annotations
- System: SUDHL5 cells
- test_summary: Induction of cytotoxicity in SUDHL5 cells (Assay 6)
- Assay type: cell-based
- settings: 5 h, CellTiter-Glo; read-out: Cytotox SUDHL5 IC50 (median)
The figures below represent log10 of IC50, where IC50 is stated in nM.

Some molecules with known log10(IC50) results, for comparison:
- molecule: "CCc1c2c(nn1C)C(CCC(C)(C)O)OCCCCn1c(C(=O)O)c(CCCOc3cccc4cc(F)ccc34)c3ccc(Cl)c-2c31 (single isomer, unassigned; enantiomer 2) [Example 76]"
  system_name: "SUDHL5 cells"
  log10(IC50): 3.56
- molecule: "CCc1c2c(nn1C)C(CCC1CCOCC1)OCCCCn1c(C(=O)O)c(CCCOc3cccc4cc(F)ccc34)c3ccc(Cl)c-2c31 (single isomer, unassigned; enantiomer 2) [Example 64]"
  system_name: "SUDHL5 cells"
  log10(IC50): 2.91
- molecule: "CCc1c2c(nn1C)C(CCN1CCOCC1)N(C)CCCCn1c(C(=O)O)c(CCCOc3cccc4cc(F)ccc34)c3ccc(Cl)c-2c31 (single isomer, unassigned) [Example 95]"
  system_name: "SUDHL5 cells"
  log10(IC50): 3.34
- molecule: "CCc1c2c(nn1C)C(CCN1CCOCC1)OCCCCn1c(C(=O)O)c(CCCOc3cccc4cc(F)ccc34)c3ccc(F)c-2c31 (single isomer, unassigned; enantiomer 1) [Example 50]"
  system_name: "SUDHL5 cells"
  log10(IC50): 1.20

Measured log10(IC50) of Cc1c2c(nn1C)C(CCO)OCCCCn1c(C(=O)O)c(CCCOc3cccc4ccccc34)c3ccc(Cl)c-2c31 (single isomer, unassigned; enantiomer 1) [Example 31] : 2.57

The measured values listed here are drawn from patent US11440923B2.
